# studyTarget: Vg9/Vd1 T cell receptor on SKW3 cells (UniProt Q99603)
# Sequence (Q99603 21-122): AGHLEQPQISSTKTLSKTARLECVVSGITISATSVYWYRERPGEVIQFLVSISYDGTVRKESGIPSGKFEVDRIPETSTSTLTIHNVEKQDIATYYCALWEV
# assayComment: flow cytometry, dose-response binding at 37 C on SKW3 cells expressing Vg9/Vd1
measurementLabel: Max. Activity (fold over background)
// no unit, no text: just the number

Looking up VG9B384 (antibody, human IgG1, lambda, V domains shown) VH: QVQLQESGPALVKPTQTLTLTCTFSGFSLSSSGMCVSWIRQPPGKALEWLTLIDWFDDKYYSTSLKTRLTISKDTSKNQVVLTMTNMDPVDTATYYCARIRGTGAYYYGLDVWGQGTMVTVSS VL: SYELMQPPSVSVSPGQTASITCSGNELGDKYASWYQQQPGQSPVLVIYQDNKRPSGIPERFSGSNSGNTATLTISGTQAMDEADYYCQAWDSSKVVFGGGTKLTVLG , I found its Max. Activity (fold over background) recorded as 290
